Listed compounds paired with reported IC50
Target system: human ACSS2 (Homo sapiens)
Construct: The cytosolic fraction of BT474 cells was used as a source of the ACSS2 enzyme; endogenous in cells
Sequence (Q9NR19 whole entry): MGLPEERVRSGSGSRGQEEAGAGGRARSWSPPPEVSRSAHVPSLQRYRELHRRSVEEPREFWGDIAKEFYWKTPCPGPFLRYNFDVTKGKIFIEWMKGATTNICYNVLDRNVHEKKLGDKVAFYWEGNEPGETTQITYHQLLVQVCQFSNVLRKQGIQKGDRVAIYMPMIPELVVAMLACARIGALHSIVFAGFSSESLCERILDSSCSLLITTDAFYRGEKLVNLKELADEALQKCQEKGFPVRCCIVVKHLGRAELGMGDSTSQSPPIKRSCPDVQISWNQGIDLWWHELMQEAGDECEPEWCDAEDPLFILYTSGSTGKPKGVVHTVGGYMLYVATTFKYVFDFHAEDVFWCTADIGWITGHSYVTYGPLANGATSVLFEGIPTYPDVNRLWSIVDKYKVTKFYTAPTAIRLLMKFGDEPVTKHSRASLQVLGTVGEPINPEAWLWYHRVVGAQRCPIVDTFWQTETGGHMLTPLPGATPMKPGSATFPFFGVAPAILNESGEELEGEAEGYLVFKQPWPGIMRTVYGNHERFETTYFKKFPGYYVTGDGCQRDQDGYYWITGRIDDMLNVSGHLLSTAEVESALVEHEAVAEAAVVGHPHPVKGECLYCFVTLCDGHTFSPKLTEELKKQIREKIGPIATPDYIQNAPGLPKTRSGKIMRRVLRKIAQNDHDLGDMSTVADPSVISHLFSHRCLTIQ
Assay details: ACSS2 enzyme assay (acetyl-CoA formation, LC-MS/MS)
Run conditions: cytosolic fraction of BT474 cells as ACSS2 source; 100 μM acetate, CoA and ATP; 2 h at 25° C.; read-out: Enzyme Activity (IC50 range)
Excerpt: Novel compounds were screened in a human ACSS2 enzyme assay. Briefly, the ACSS2 enzyme reaction was monitored by directly measuring acetyl-CoA formation. The cytosolic fraction of BT474 cells was used as a source of the ACSS2 enzyme. A short protocol for this assay is provided below. Preparation of Cytosolic Fraction from BT474 Cells 9×10^6 cells were harvested by trypsinization followed by centrifugation. […]

Compound: CC[C@H](CNC(=O)Nc1ccc2nc(-c3ccccc3)c(-c3ccccc3F)cc2c1)OP(=O)(O)O [Example 117]
IC50: < 100 nM
--
Compound: O=C(Nc1ccc2nc(-c3ccccc3)c(-c3ccccc3)cc2c1)NC1CCCC1O (centres unmarked) [Example 136]
IC50: ≤ 1000 nM
--
Compound: CCC(=O)CCC(=O)Nc1ccc2nc(-c3ccccc3F)c(-c3ccccc3F)cc2c1 [Example 124]
IC50: < 100 nM
--
Compound: CC(=O)N1CCN(C(=O)Nc2ccc3nc(-c4ccccc4)c(-c4ccccc4)cc3c2)CC1 [Example 133]
IC50: ≤ 10000 nM
--
Compound: CCC(O)CNC(=O)Nc1ccc2nc(-c3ccnc(OC)c3)c(-c3ccnc(OC)c3)cc2c1 (centres unmarked) [Example 9]
IC50: > 10000 nM
--
Compound: CCC(O)CNC(=O)Nc1ccc2ncc(-c3ccccc3)c(C(N)=O)c2c1 (centres unmarked) [Example 71]
IC50: ≤ 1000 nM
--
Compound: CCC(O)CNC(=O)Nc1ccc2nc(-c3cccnc3)c(-c3ccccc3F)cc2c1 (centres unmarked) [Example 31]
IC50: < 100 nM
--
Compound: CCCCCC(=O)Nc1ccc2nc(-c3ccccc3F)c(-c3ccccc3F)cc2c1 [Example 121]
IC50: < 100 nM
